I'd be grateful if you could share measured Kb for these entries.
# testedTarget: isolated guinea pig ileum (antagonist acetyl choline) (Cavia porcellus, UniProt H0W1Z3)
# Construct: antimuscarinic activity using the isolated guinea pig ileum; from tissue; host or cells: isolated guinea pig ileum
# Sequence (H0W1Z3 1-590): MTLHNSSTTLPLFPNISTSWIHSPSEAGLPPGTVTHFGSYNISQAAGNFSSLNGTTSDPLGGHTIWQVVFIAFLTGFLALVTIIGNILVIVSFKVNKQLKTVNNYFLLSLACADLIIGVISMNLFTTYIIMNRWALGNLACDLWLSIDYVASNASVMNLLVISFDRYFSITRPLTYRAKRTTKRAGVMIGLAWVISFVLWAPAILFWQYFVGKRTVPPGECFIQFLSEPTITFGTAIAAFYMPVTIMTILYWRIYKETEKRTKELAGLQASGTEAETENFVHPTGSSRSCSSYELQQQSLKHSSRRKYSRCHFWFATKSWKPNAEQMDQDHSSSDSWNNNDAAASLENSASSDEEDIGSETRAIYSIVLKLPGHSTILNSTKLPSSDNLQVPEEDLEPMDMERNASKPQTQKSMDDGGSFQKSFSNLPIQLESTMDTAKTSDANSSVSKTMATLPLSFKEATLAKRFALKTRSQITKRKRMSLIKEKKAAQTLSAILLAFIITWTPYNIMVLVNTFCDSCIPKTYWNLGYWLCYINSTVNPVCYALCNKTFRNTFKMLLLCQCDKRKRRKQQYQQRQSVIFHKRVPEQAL
# protocolNotes: Isolated guinea pig ileum, antimuscarinic activity vs acetyl choline, pA2
# Type: cell-based
Answers are plain numbers, in nM.

Solved entries:
compoundStructure	Kb / nM
CCCC(CCC)C(=O)O[C@@H]1C[C@@H]2[C@H]3O[C@H]3[C@H](C1)[N@@+]2(C)CC	93.3
CCCC(CCC)C(=O)O[C@@H]1C[C@@H]2[C@H]3O[C@H]3[C@H](C1)[N@+]2(C)CC	19.1
CCCC(CCC)C(=O)O[C@@H]1C[C@@H]2[C@H]3O[C@H]3[C@H](C1)[N@+]2(C)C(C)C	302

Next compound, Kb to be filled in.
Noted for `CCCC(CCC)C(=O)O[C@@H]1C[C@@H]2[C@H]3O[C@H]3[C@H](C1)[N+]2(C)C` : its Kb reads 11
